Data provenance is ChEMBL document CHEMBL3832761.

# System: Mycobacterium tuberculosis
# test description: AntiMycobacterium tuberculosis activity day 10 in 7H9/2.5mM butyrate/pH6/0.1mM nitrite MIC90 (uM)
# Format: functional
# measurement conditions: 240 h
measurement label: log10 of MIC90 (log10 of the value in µM)

{"columns": ["molecule", "reported"],
 "data": [
  ["O=C(NCc1ccoc1)N1CCN(Cc2ccc3c(c2)OCO3)CC1", 0.80],
  ["CCOC(=O)c1cc(-c2csc(Nc3c(C)cc(C)cc3C)n2)on1", 0.80],
  ["O=C1O[C@@H](COc2ccon2)CN1c1cc(F)c(C2=CCN(Cc3ccccc3)CC2)c(F)c1", 1.40],
  ["Cc1cc(OCC(=O)NCc2ccccc2)c2cc(Br)ccc2n1", 1.40],
  ["CCC(Sc1nc2ccccc2o1)C(=O)Nc1nccs1 (stereo not drawn)", 1.10],
  ["COc1cccc(OCC(=O)c2ccc(Br)cc2)c1", 1.40],
  ["CCOC(=O)NC(=O)c1ccsc1NC(=O)c1nc2ccccc2s1", -0.72],
  ["CNc1snc(C)c1C(=O)NCCOc1ccc(OC)cc1", 0.80],
  ["Cc1ccccc1CN1CCC(O)(c2ccc(Cl)c(C(F)(F)F)c2)CC1", 1.10],
  ["COc1ccc(-c2nc(-c3cccc(NC(=O)Cc4ccc(F)cc4)c3)no2)cc1OC", 0.49]
]}

====

The entries below are paired with their reported MIC.
# Tested on: Mycobacterium tuberculosis
# test description: AntiMycobacterium tuberculosis activity 2-week Alamar Blue 7H9/ADC/Tw MIC (uM)
# Assay type: functional
# measurement conditions: 336 h

{"columns": ["molecule", "measured target", "relation symbol", "MIC, µM"],
 "data": [
  ["Clc1ccc(CCNc2cc(-c3ccccc3)nc3ncnn23)cc1", "Mycobacterium tuberculosis", "=", 6.25],
  ["Cc1cccc(Cn2ccc(NC(=O)c3ccc4c(c3)OCO4)n2)c1", "Mycobacterium tuberculosis", "=", 12.5],
  ["COc1ccc2nccc(NC(=O)C3CCN(CCc4ccc(Cl)cc4)CC3)c2n1", "Mycobacterium tuberculosis", "=", 0.39],
  ["COc1ccc(-c2cc(NC(=O)c3ccc(F)cc3Cl)ccc2OC)cc1", "Mycobacterium tuberculosis", "=", 50],
  ["CCOc1ccc(OCC(=O)Nc2cc(C)cc(C)c2)cc1", "Mycobacterium tuberculosis", ">", 50],
  ["COc1ccc(OC(C)C(=O)Nc2ccc(Cl)cc2C)cc1 (stereo unspecified)", "Mycobacterium tuberculosis", "=", 6.25]
]}

====

The entries below are paired with their reported MIC90.
# System: Mycobacterium tuberculosis
# test description: AntiMycobacterium tuberculosis activity day 10 in 7H9/2.5mM butyrate/pH6/0.1mM nitrite MIC90 (uM)
# Assay type: functional
# measurement conditions: 240 h
measurement label: MIC90

{"columns": ["compound", "measured target", "reported"],
 "data": [
  ["CC1COC2(CCN(c3nc(=O)c4cc(C(F)(F)F)cc([N+](=O)[O-])c4s3)CC2)O1 (stereo not drawn)", "Mycobacterium tuberculosis", "≤ 0.04 µM"],
  ["Cc1ccc2oc(-c3cc(NC(=O)Cc4ccccc4)ccc3Cl)nc2c1", "Mycobacterium tuberculosis", "> 50 µM"],
  ["COc1cc(Br)cc2cc(C(=O)Nc3cccc(C(F)(F)F)c3)c(=O)oc12", "Mycobacterium tuberculosis", "12.5 µM"],
  ["NC(=O)c1cc(Br)ccc1OCCOc1ccccc1", "Mycobacterium tuberculosis", "> 50 µM"],
  ["COc1ccccc1OCCCCn1c(C2CC2)nc2ccccc21", "Mycobacterium tuberculosis", "50 µM"],
  ["Nc1ncnc2c1ncn2[C@@H]1O[C@H](COS(=O)(=O)NC(=O)c2ccccc2O)[C@@H](O)[C@H]1O", "Mycobacterium tuberculosis", "> 50 µM"],
  ["Cc1cc(O)nc(-n2nc(C)cc2C)n1", "Mycobacterium tuberculosis", "25 µM"],
  ["CC(C)(C(=O)Nc1ccc(F)cc1)n1cc(-c2ccccc2F)cn1", "Mycobacterium tuberculosis", "12.5 µM"],
  ["O=[N+]([O-])c1cn2c(n1)OC[C@@H](OCc1ccc(OC(F)(F)F)cc1)C2 [PRETOMANID]", "Mycobacterium tuberculosis", "0.78 µM"],
  ["CC(=O)N1CCc2cc3nc(C)cc(C)c3cc21", "Mycobacterium tuberculosis", "> 50 µM"],
  ["Cc1ccc(NC(=O)CC2COc3ccccc3O2)cc1Cl (stereo not drawn)", "Mycobacterium tuberculosis", "> 50 µM"],
  ["CC(C)(C)c1cnc(NC(=O)c2ccccc2O)s1", "Mycobacterium tuberculosis", "> 50 µM"],
  ["COc1ccc2nc(C)cc(OCC(=O)Nc3ccccc3OC)c2c1", "Mycobacterium tuberculosis", "> 50 µM"],
  ["CS(=O)(=O)Cc1nc2ccccc2oc1=O", "Mycobacterium tuberculosis", "12.5 µM"],
  ["O=C(Nc1cccnc1)c1c(O)c2cccc3c2n(c1=O)CC3", "Mycobacterium tuberculosis", "> 50 µM"],
  ["CCC(Sc1nc2ccccc2o1)C(=O)Nc1nnc(C)s1 (stereo not drawn)", "Mycobacterium tuberculosis", "> 50 µM"],
  ["O=C(NC1CCCCC1)N1CCN(Cc2ccc3c(c2)OCO3)CC1", "Mycobacterium tuberculosis", "> 50 µM"],
  ["O=C(NCc1cc(Cl)cc(Cl)c1)c1c(C(F)(F)F)nc2ccccn12", "Mycobacterium tuberculosis", "> 50 µM"],
  ["CN1CCN(c2cc(-c3ccc(F)cc3)nc(-c3ccncc3)n2)CC1", "Mycobacterium tuberculosis", "> 50 µM"],
  ["COc1ccc(OC(C)C(=O)Nc2ccc(Cl)cc2C)cc1 (stereo not drawn)", "Mycobacterium tuberculosis", "> 50 µM"],
  ["O=C(Nc1nnc(-c2ccc(Cl)cc2)o1)c1cccc(C(F)(F)F)c1", "Mycobacterium tuberculosis", "> 50 µM"],
  ["Brc1c(-c2ccc3c(c2)OCO3)nc2ncccn12", "Mycobacterium tuberculosis", "> 50 µM"],
  ["Cc1cc(NCCc2ccccc2)nc(NC(=N)Nc2ccc(Cl)cc2)n1", "Mycobacterium tuberculosis", "6.25 µM"]
]}
